- target-system: AKT2 (Homo sapiens)
- Construct: expressed in transfected cells; host or cells: HEK293
- Sequence (P31751 whole entry): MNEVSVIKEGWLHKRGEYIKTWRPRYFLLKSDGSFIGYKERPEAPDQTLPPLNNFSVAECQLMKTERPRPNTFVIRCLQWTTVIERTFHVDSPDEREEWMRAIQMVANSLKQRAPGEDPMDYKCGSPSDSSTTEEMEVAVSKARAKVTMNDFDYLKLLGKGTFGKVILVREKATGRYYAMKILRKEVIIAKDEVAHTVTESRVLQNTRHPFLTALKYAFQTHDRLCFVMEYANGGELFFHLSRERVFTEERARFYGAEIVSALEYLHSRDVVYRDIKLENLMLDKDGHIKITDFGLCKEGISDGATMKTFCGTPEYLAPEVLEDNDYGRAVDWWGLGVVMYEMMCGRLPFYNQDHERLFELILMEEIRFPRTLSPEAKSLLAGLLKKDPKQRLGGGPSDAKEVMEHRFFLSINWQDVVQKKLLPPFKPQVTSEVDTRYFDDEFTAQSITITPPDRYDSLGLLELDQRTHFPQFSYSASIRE
- test-description: Live cell AKT2 target engagement by NanoBRET competitive probe displacement in HEK293 cells
- Format: binding
- settings: NanoBRET competitive probe displacement, live HEK293 cells, 2 h at 37° C.; read-out: AKT2 IC50
Exercise: state measured IC50 for each of the molecules provided.

# input // query IC50 value for entry CN1CCN(c2ccn(-c3ccc4nc(-c5cccnc5N)n(-c5ccc6c(c5)CC[C@@H]6NC5CCN(C(=O)C6CC6)CC5)c4n3)n2)CC1
# output 37.8 nM

# input // query IC50 value for entry Nc1ncccc1-c1nc2ccc(-n3nccn3)nc2n1-c1ccc2c(c1)CC[C@@H]2NC(=O)c1ccc(C2CC2)nc1
# output 351 nM

# input // query IC50 value for entry Nc1ncccc1-c1nc2ccc(-n3cccn3)nc2n1-c1ccc2c(c1)CC[C@@H]2NC1CCN(c2cccnc2)C1 (stereo partly shown) [Compound 472]
# output 404 nM

# input // query IC50 value for entry Nc1ncccc1-c1nc2ccc(-n3cccn3)nc2n1-c1ccc2c(c1)CC[C@@H]2NC1CC2(CCCN2c2ccccn2)C1 (stereo partly shown)
# output > 10000 nM
